Data origin, for the record: PubChem BioAssay (NCI)

- System: MOLT-4 leukemia
- PROTOCOL_DESCRIPTION: NCI tumour cell line growth inhibition, 48 h
This section presents compounds with their documented TGI values.
Please give a number only; it is taken to be in µM.

[
  {
    "STRUCTURE_STRING": "Cn1c(=O)c2nc3sc4c(n3c2n(C)c1=O)C(=O)c1ccccc1C4=O",
    "TGI, µM": 38.3
  }
]

Please turn your attention to the following entry.
Memo: `COC(=O)c1cc2c(cc1Cl)Sc1nnc(Nc3ccccc3)n1S2(=O)=O` , reported TGI: 6.34

###

- Test system: SR leukemia
- PROTOCOL_DESCRIPTION: NCI tumour cell line growth inhibition, 48 h
Below, each entry is listed alongside its reported GI50.

`Cc1cc(Br)c(NC(=O)c2c(-c3c(Cl)cccc3Cl)noc2C)c(Br)c1` yielded GI50 of > 100000 nM

Record Nc1nc(=S)c2ncn(C3OC(COP(=O)(O)O)C(O)C3O)c2[nH]1 (stereo not given) , field GI50: 268 nM

Sample `CC(C)[C@@H]1CC[C@]2(CO2)[C@@H]2C(=O)OCC(C(=O)O)=C[C@H]21` ; GI50 observed: 552 nM

Per the records, this compound ( `COCCN(CCOC)c1nc(-c2ccccc2)nc2ccccc12` ) has GI50 equal to 34400 nM

Lab note: measured GI50 of `COCCOC1=C(Cl)C(=O)c2ccccc2C1=O` was 3170 nM

The reported value for CCSCC1CC(O)(c2ccccc2)C(c2ccccc2)C(c2ccc(F)cc2)O1 (stereo not given) in terms of GI50 is 1980 nM

###

- Test system: SK-MEL-5 melanoma
- PROTOCOL_DESCRIPTION: NCI tumour cell line growth inhibition, 48 h
RECORDED_ENDPOINT: TGI (µM)
A number alone suffices; assume µM.

Field: example entries. Status: answers known.
[
  {
    "COMPOUND": "C#Cc1ccc(-n2c(/C=C/c3ccc(O)cc3)nc3ncccc3c2=O)cc1",
    "TGI (µM)": 7.45
  },
  {
    "COMPOUND": "CN=c1sc2c(n1C)C(=O)c1ccccc1C2=O",
    "TGI (µM)": 6.85
  },
  {
    "COMPOUND": "CSC(=O)/C=C1\\SS/C(=C\\C(=O)SC)S1",
    "TGI (µM)": 6.79
  },
  {
    "COMPOUND": "COC(=O)[C@@]12OC[C@]34C([C@@H](O)C1O)[C@@]1(C)CC(=O)C(OC(=O)CC(C)C(F)(F)F)=C(C)C1C[C@H]3OC(=O)[C@H](O)[C@H]42 (stereo partly drawn)",
    "TGI (µM)": 22.2
  }
]

Record `S=C1SCN(Cc2ccccc2)CN1Cc1ccco1` / SK-MEL-5 melanoma, TGI recorded as 26.9

The compound `CC(C)[C@@H]1CC[C@]2(CO2)[C@@H]2C(=O)OCC(C(=O)O)=C[C@H]21` on SK-MEL-5 melanoma: TGI was 1.51

# `COc1ccc(-c2cc(/C=C/C(=O)c3ccc(N)cc3)[nH]n2)cc1OC` with SK-MEL-5 melanoma: TGI is 11.5

// assay SK-MEL-5 melanoma, entry `CN1CCN(c2c(F)cc(NC3=C(Cl)C(=O)c4ncccc4C3=O)cc2F)CC1` , TGI value = 28.8

###

- Test system: SK-MEL-2 melanoma
- PROTOCOL_DESCRIPTION: NCI tumour cell line growth inhibition, 48 h
RECORDED_ENDPOINT: TGI

[
  {
    "COMPOUND": "CC12OC(=O)C(C#N)C1(C)C1C(=O)CCCC12 (configuration not stated)",
    "TGI": "> 100 µM"
  },
  {
    "COMPOUND": "C[C@H](C(=O)O)C(=O)NC(=O)N(Cc1ccccc1)N=O",
    "TGI": "> 100 µM"
  },
  {
    "COMPOUND": "Cc1ccc(S(=O)(=O)OC2CC(C(C)(C)C)CCC2c2ccccc2)cc1 (configuration not stated)",
    "TGI": "> 100 µM"
  },
  {
    "COMPOUND": "COC(CN(C)C(=S)Nc1cccc2ccccc12)OC",
    "TGI": "> 10 µM"
  },
  {
    "COMPOUND": "COc1ccccc1C1c2cc3c(cc2OC2(OC)COC(=O)C12)OCO3 (configuration not stated)",
    "TGI": "55.6 µM"
  },
  {
    "COMPOUND": "Nc1nc(=S)c2c(ncn2CCO)[nH]1",
    "TGI": "> 100 µM"
  },
  {
    "COMPOUND": "O=C1CC(O)c2cscc21 (configuration not stated)",
    "TGI": "> 100 µM"
  },
  {
    "COMPOUND": "Cc1cc(Cl)nc(N(CCNc2ccnc3cc(Cl)ccc23)Cc2ccco2)n1",
    "TGI": "4.8 µM"
  },
  {
    "COMPOUND": "O=C1c2ccccc2C(=O)c2[nH]cnc21",
    "TGI": "> 100 µM"
  },
  {
    "COMPOUND": "CCCCCC(=O)O[C@]1(C(C)=O)CCC2C3CCC4=CC(=O)CC[C@]4(C)C3CC[C@@]21C (some centres not stated)",
    "TGI": "7.73 µM"
  }
]

Data point: O=C(c1ccc(Cl)cc1)C1OC12C(=O)Nc1c(Cl)cc(Cl)cc12 (configuration not stated) ; TGI = > 100 µM

The compound identified as `N#Cc1sc2nc3ccccc3n2c1N` registered its TGI at 81.7 µM

Data point: `CCCCCC/C=C\CCCCCCCCC(=O)c1cccc(OC)c1OC` ; TGI = > 100 µM

Input NC1=NC2(COC(c3ccccc3)(c3ccccc3)c3ccccc3)OC(COC(c3ccccc3)(c3ccccc3)c3ccccc3)C(O)C2O1 (configuration not stated) . Output TGI: 85.5 µM

Lab note: measured TGI of CCCCCCCCCCCCCCCCCCNc1ccn(C2OC(COP(=O)(O)OCC3OC(n4ccc(N)nc4=O)C(O)C3O)C(O)C2O)c(=O)n1 (configuration not stated) was > 100 µM

// recorded TGI for `COc1ccc(/C=C2\C(=O)N(NC(C)=O)c3ccccc32)cc1` : > 100 µM

Measured TGI, O=c1[nH]c(N/N=C\C(O)C(O)C(O)C(O)CO)nc2ccccc12 (configuration not stated) : > 100 µM

Query CSCCC(C(=O)O)N(C)C (configuration not stated) yields TGI of > 100 µM

Given item `COC(=O)[C@@H]1[C@@H]2NC(=S)N[C@@]1(C)Oc1ccccc12` , the value recorded as its TGI is > 100 µM

Recorded result, `Cc1ccc(N=N/C(=N/NC(=O)c2ccccc2)c2ccc(N(CCC#N)CCC#N)cc2C)cc1` , TGI: > 100 µM

// recorded TGI for `O=c1[nH]c2[nH]c(=S)[nH]c(=S)c2[nH]1` : > 100 µM

The reported value for `COC(=O)[C@@H]1CO[C@H](C(C)(C)C)N1C(=O)N1C=CC(=O)C[C@H]1C` in terms of TGI is > 100 µM

compound `Cc1cc(N(CCC#N)CCC#N)ccc1/C(N=Nc1ccccc1)=N\NC(=O)c1cc(Cl)ccc1O` , TGI observed: > 100 µM

The compound listed as `COCCN(Cc1ccc(F)cc1)c1ccc(CO)c(Cl)c1` has a reported TGI of 59.5 µM

###

Listed next: entries and their corresponding TGI.
- System: RXF 393 renal
- PROTOCOL_DESCRIPTION: NCI tumour cell line growth inhibition, 48 h

The following molecules have reported results that may help.
[
  {
    "MOLECULE": "C=C(C#N)C(=O)OCC(CC)CC.C=C(C#N)C(=O)OCC(CC)CC.CS(C)=O.CS(C)=O.Nc1c(N=Nc2ccc(-c3ccc(N=Nc4cc(S(=O)(=O)[O-])c5ccccc5c4N)cc3)cc2)cc(S(=O)(=O)[O-])c2ccccc12.[Pt+2]",
    "OBSERVED_VALUE": "51.1 µM"
  },
  {
    "MOLECULE": "COC(=O)c1c(C)cccc1/C=C1\\Cc2ccc(C)c(C)c2C1=O",
    "OBSERVED_VALUE": "> 100 µM"
  },
  {
    "MOLECULE": "CC1(C)O[C@@H]2[C@@H](COC(C)(C)O[C@H]2C2SCCCS2)O1",
    "OBSERVED_VALUE": "> 100 µM"
  },
  {
    "MOLECULE": "CC1NOC(=O)C1N=Nc1ccc(Cl)cc1Cl (centres undefined)",
    "OBSERVED_VALUE": "46.1 µM"
  },
  {
    "MOLECULE": "CCN(/C=C1/C(=O)C(c2ccccc2)N(c2ccccc2)C1=O)CC (centres undefined)",
    "OBSERVED_VALUE": "> 10 µM"
  },
  {
    "MOLECULE": "CC(=O)NC1C(OCC(=O)NCCNc2ccc([N+](=O)[O-])c3[nH]c4ccccc4c(=O)c23)C(O)C(CO)OC1(C)OCc1ccccc1 (centres undefined)",
    "OBSERVED_VALUE": "> 100 µM"
  },
  {
    "MOLECULE": "COc1ccc(-c2c(C3=NCCCN3)nnn2-c2ccccc2)cc1",
    "OBSERVED_VALUE": "> 100 µM"
  },
  {
    "MOLECULE": "O=C1NC(=O)C2C(=O)NC(=O)C1C2Cc1ccco1 (centres undefined)",
    "OBSERVED_VALUE": "> 100 µM"
  }
]

Next up:
For the molecule `COc1cc(OC)c(OC)cc1/C=C/c1nc2ccccc2s1` , the measured TGI on RXF 393 renal was > 100 µM
